experiment: Volume of distribution at steady state in Beagle dog at 0.1 mg/kg, iv measured up to 72 hrs by LC-MS/MS analysis; details: in vivo
endpoint name: Vd at 72 h (L/kg)
Numbers only, in L/kg.

Query block: Form field: reported Vd at 72 h of COc1cc(OC)c(F)c(COc2cnc(Nc3cnn(CCO)c3)nc2)c1F [ASP-5878]
Result block: 0.665

----------
assay: AUCinfinity in Beagle dog at 0.1 mg/kg, iv measured up to 72 hrs by LC-MS/MS analysis; conditions: in vivo
endpoint name: AUC(0-inf) at 72 h (ng·h/mL)
Numbers only, in ng·h/mL.

Query block: Form field: reported AUC(0-inf) at 72 h of COc1cc(OC)c(F)c(COc2cnc(Nc3cnn(CCO)c3)nc2)c1F [ASP-5878]
Result block: 1260

----------
assay: AUCinfinity in Beagle dog at 0.1 mg/kg, po measured upto 72 hrs by LC-MS/MS analysis; conditions: in vivo
endpoint name: AUC(0-inf) at 72 h (ng·h/mL)
One number for each entry, in ng·h/mL.

Query block: Form field: reported AUC(0-inf) at 72 h of COc1cc(OC)c(F)c(COc2cnc(Nc3cnn(CCO)c3)nc2)c1F
Result block: 1180

----------
test: Volume of distribution at steady state in Sprague-Dawley rat at 0.3 mg/kg, iv measured up to 24 hrs by LC-MS/MS analysis; details: in vivo
endpoint name: Vd at 24 h (L/kg)
Answers are plain numbers, in L/kg.

Query block: Form field: reported Vd at 24 h of COc1cc(OC)c(F)c(COc2cnc(Nc3cnn(CCO)c3)nc2)c1F
Result block: 0.671

----------
test: in vivo; details: beagle, dog, po, 1 mg/kg
endpoint name: Tmax at 72 h (h)
Numbers only, in h.

Query block: Form field: reported Tmax at 72 h of COc1cc(OC)c(F)c(COc2cnc(Nc3cnn(CCO)c3)nc2)c1F [ASP-5878]
Result block: 1.3

----------
experiment: Intrinsic clearance in human liver microsomes; conditions: microsomes
endpoint name: CLint scaled

Query block: Form field: reported CLint scaled of COc1cc(OC)c(F)c(COc2cnc(Nc3cnn(CCO)c3)nc2)c1F
Result block: < 23 mL/min/kg

----------
assay: in vivo; conditions: beagle, dog, po, 0.1 mg/kg
endpoint name: Cmax at 72 h (ng/mL)
Give bare numbers, in ng/mL.

Query block: Form field: reported Cmax at 72 h of COc1cc(OC)c(F)c(COc2cnc(Nc3cnn(CCO)c3)nc2)c1F
Result block: 119

----------
test: Lipophilicity, logD of the compound in 1-octanol and phosphate buffer at pH 7.4 by LC-MS analysis; conditions: 1-octanol/phosphate buffer
endpoint name: logD
One number for each entry.

// worked examples, logD included
structure	logD
COc1cc(Nc2ncc(OCc3c(F)c(OC)cc(OC)c3F)cn2)ccc1N1CCN(C)CC1	3
COc1cc(Nc2ncc(CCc3c(F)c(OC)cc(OC)c3F)cn2)ccc1N1CCN(C)CC1	3
COc1cc(OC)c(F)c(COc2cnc(Nc3cnn(CCNC4CCN(C)CC4)c3)nc2)c1F.Cl.Cl.Cl	0.7

Hi! Can you tell me logD for each of these molecules?
1. CCOc1cc(Nc2ncc(OCc3c(F)c(OC)cc(OC)c3F)cn2)ccc1N1CCC(N2CCN(C)CC2)CC1
2. COc1cc(OC)c(F)c(COc2cnc(Nc3ccc(N4CCC(N5CCN(C)CC5)CC4)c(C)c3)nc2)c1F
3. COc1cc(OC)c(F)c(COc2cnc(Nc3cnn(CCN4CCNCC4)c3)nc2)c1F.Cl.Cl.Cl
4. COc1cc(Nc2ncc(CCc3c(F)c(OC)cc(OC)c3F)cn2)ccc1N1CCC(N(C)C2CCN(C)CC2)CC1.Cl.Cl.Cl.Cl
5. COc1cc(Nc2ncc(OCc3c(F)c(OC)cc(OC)c3F)cn2)ccc1N1CCC(N2CCN(C)CC2)CC1

Result block:
3.8
4.1
0.2
2.5
3.3
